Entry source: patent US8017612B2

# Tested On: HCV polymerase (NS5B) type 1a (Hepatitis C virus genotype 1a)
# Construct: made in house; host or cells: Escherichia coli (by the 'similar method' of the 1b enzyme)
# Assay Summary: Assay of enzyme (HCV polymerase) inhibitory activity, type 1a enzyme
# Format: biochemical, HCV type 1a (cloned from the blood of patients)
# Condition Label: HCV polymerase inhibitory activity (IC50), 1a, type 1a enzyme 1.5 μg/ml, 25° C., 60 min
Below, each entry is listed with its recorded IC50.
Observable: IC50

| Compound | Tested On | Readout Value |
| --- | --- | --- |
| CCN(C)c1ccc(CNC(=O)[C@H]2CN(c3nc(C)c(C(=O)O)s3)CCN2S(=O)(=O)c2ccc(OC(F)(F)F)cc2)cc1 | HCV polymerase (NS5B) type 1a (Hepatitis C virus genotype 1a) | < 100 nM |
| CCCc1ccc(S(=O)(=O)N2CCN(c3nc(C(=O)O)cs3)C[C@@H]2C(=O)NCc2ccc(C(C)C)cc2)cc1 | HCV polymerase (NS5B) type 1a (Hepatitis C virus genotype 1a) | 100 to 1000 nM |
| CC(=O)N1CCN(S(=O)(=O)c2ccc(C(F)(F)F)cc2)C(C(=O)NCc2ccc(C(F)(F)F)cc2)C1 (stereo not shown) | HCV polymerase (NS5B) type 1a (Hepatitis C virus genotype 1a) | > 1000 nM |
| CN(C)c1ccc(CNC(=O)[C@H]2CN(c3cnc(C(=O)O)cn3)CCN2S(=O)(=O)c2ccc(OC(F)(F)F)cc2)cc1 | HCV polymerase (NS5B) type 1a (Hepatitis C virus genotype 1a) | < 100 nM |
| CN1CCN(Cc2cnc(N3CCN(S(=O)(=O)c4ccc(OC(F)(F)F)cc4)[C@@H](C(=O)NCc4ccc(C(C)(C)C)cc4)C3)cn2)CC1 | HCV polymerase (NS5B) type 1a (Hepatitis C virus genotype 1a) | < 100 nM |
| CCCc1ccc(S(=O)(=O)N2CCN(c3nc(COC)c(C(=O)O)s3)C[C@@H]2C(=O)NCc2ccc(C(C)C)cc2)cc1 | HCV polymerase (NS5B) type 1a (Hepatitis C virus genotype 1a) | < 100 nM |
| CCC(F)(F)c1ccc(CNC(=O)[C@H]2CN(C(=O)Cc3nnnn3C)CCN2S(=O)(=O)c2ccc(OC(F)(F)F)cc2)cc1 | HCV polymerase (NS5B) type 1a (Hepatitis C virus genotype 1a) | 100 to 1000 nM |
| CCC(F)(F)c1ccc(CNC(=O)[C@H]2CN(C(=O)Nc3nc[nH]n3)CCN2S(=O)(=O)c2ccc(OC(F)(F)F)cc2)cc1 | HCV polymerase (NS5B) type 1a (Hepatitis C virus genotype 1a) | 100 to 1000 nM |
| CC(=O)N1CCN(S(=O)(=O)c2ccc(C(C)C)cc2)C(C(=O)NCc2ccc(-c3ccc(Cl)cc3)cc2)C1 (stereo not shown) | HCV polymerase (NS5B) type 1a (Hepatitis C virus genotype 1a) | > 1000 nM |
| CC(=O)N1CCN(S(=O)(=O)c2ccc(C(C)C)cc2)[C@@H](C(=O)NCc2ccc(-c3ccoc3)cc2)C1 | HCV polymerase (NS5B) type 1a (Hepatitis C virus genotype 1a) | 100 to 1000 nM |
| CCC(F)(F)c1ccc(CNC(=O)[C@H]2CN(c3cnc4ccccc4n3)CCN2S(=O)(=O)c2ccc(OC(F)(F)F)cc2)cc1 | HCV polymerase (NS5B) type 1a (Hepatitis C virus genotype 1a) | < 100 nM |
| CCCc1ccc(CNC(=O)[C@H]2CN(c3nc(C)c(C(=O)O)s3)CCN2S(=O)(=O)c2ccc(CC)cc2)cc1 | HCV polymerase (NS5B) type 1a (Hepatitis C virus genotype 1a) | < 100 nM |
| CC(=O)N1CCN(S(=O)(=O)c2ccc(C(C)C)cc2)C(C(=O)NCc2ccc(N3CCN(C)CC3)cc2)C1 (stereo not shown) | HCV polymerase (NS5B) type 1a (Hepatitis C virus genotype 1a) | > 1000 nM |
